assay system: receptor-binding domain (RBD) of the spike protein of SARS-CoV-2 (SARS-CoV-2, UniProt P0DTC2 319-541)
pKd: −log10 of the molar value.
Use 8 as the dividing line for pKd, with the line itself on the Y side and lower values as N.

**Q:** Textbook exercise: given the entry P5A-2G7 (antibody, human IgG1, lambda, V domains shown) VH: QVQLQESGPGLVKPSETLSLTCTVSGDSVSSGSYYWSWIRQPPGKGLEWIGYIYYSGSTNYNPSLKSRVTISVDTSKNQFSLKLSSVTAADTAVYYCARERCYYGSGRAPRCVWFDPWGQGTLVTVSS VL: QSALTQPASVSGSPGQSITISCTGTSSDVGGYNYVSWYQQHPGKAPKLMIYDVSNRPSGVSNRFSGSKSGNTASLTISGLQAEDEADYYCSSYTSSSTLVVFGGGTKLTVLG , state whether its pKd is greater than or equal to 8.
**A:** Y

**Q:** Same question for P2B-1A10 (antibody, human IgG1, kappa, V domains shown) VH: EVQLVESGGGLIQPGGSLRLSCAASGFTVSSNYMSWVRQAPGKGLEWVSVIYSGGSTYYADSVKGRFTISRDNSKNTLYLQMNSLRAEDTAVYYCAREGPKSITGTAFDIWGQGTIVTVSS VL: DIQMTQSPSSLSASVGDRVTITCQASQDISNYFNWYQQKPGKAPKLLIYDASNLETGVPSRFSGSGSGTDFTFTISSLQPEDIATYYCQQYDNLPMYTFGQGTKLEIKR please.
**A:** N

**Q:** Same question for P5A-3C8 (antibody, human IgG1, kappa, V domains shown) VH: EVQLVESGGGLIQPGGSLRLSCAASGFTVSSNYMSWVRQAPGKGLEWVSFIYSGGSTYYADSVKGRFTISRDNSKNTLYLQMNSLRAEDTAVYYCARDLQEHGMDVWGQGTTVTVSS VL: DIQLTQSPSSLSASVGDRVTITCRASQGISSYLAWYQQKPGKAPKLLIYAASTLQSGVPSRFSGSGSGTDFTLTISSLQPEDFATYYCQHLNSYPPGYTFGQGTKLEIKR please.
**A:** Y

**Q:** Same question for P22A-1D1 (antibody, human IgG1, kappa, V domains shown) VH: EVQLVESGGGLIQPGGSLRLSCAASGFTVSSNYMSWVRQAPGKGLEWVSVIYSGGSTYYADSVKGRFTISRDNSKNTLYLQMNSLRAEDTAVYYCARDRDYYGMDVWGQGTTVTVSS VL: DIQLTQSPSFLSASVGDRVTITCRASQGISSYLAWYQQKPGKAPKLLIYAASTLQSGVPSRFSGSGSGTEFTLTISSLQPEDFATYYCLHLNSYRTFGLGTKVEIKR please.
**A:** Y
